Entries and their measured No. of dead mice follow.
Tested on: Mus musculus
assay.explanation: Toxicity of compound against mice was determined at a concentration of 100 mg/kg
Format: organism-based
Set-up: dose 100 mg/kg
experimental.conditions: in vivo
property.label: No. of dead mice

Nc1ccn([C@@H]2O[C@H](CO)[C@H](O)[C@H]2O)c(=O)n1 :: 0
Nc1nc2c(ncn2COCCO)c(=O)[nH]1 [ACYCLOVIR] :: 0
Nc1nc2c(ncn2[C@@H]2O[C@H](CO)[C@H](O)[C@H]2O)c(=O)[nH]1 :: 2
Nc1ncnc2c1ncn2[C@@H]1O[C@H](CO)[C@@H](O)[C@@H]1O [VIDARABINE] :: 0

* * *

Overview of reported MCC across a group of compounds:
Tested on: WI-38
assay.explanation: Antiviral activity was measured against Rhino virus-1A in human diploid (WI-38) cells.
Type: functional
property.label: MCC (µg/mL)

Nc1ncnc2c1ncn2[C@@H]1O[C@H](CO)[C@H](O)[C@H]1O :: 20
NC(=O)c1ncn([C@@H]2O[C@H](CO)[C@@H](O)[C@H]2O)n1 :: 150
Nc1ncnc2c1ncn2C[C@H](O)CO [(S)-DHPA] :: 150
Nc1ncnc2c1ccn2[C@@H]1O[C@H](CO)[C@@H](O)[C@H]1O :: 0.01

* * *

assay.explanation: Concentration required to reduce DNA synthesis in primary rabbit kidney cells using [3H-Methyl]-dThd incorporation
Assay type: functional
experimental.conditions: Oryctolagus cuniculus, read-out: ID50 (the source's name)
property.label: IC50 (µg/mL)

Nc1ccn([C@@H]2O[C@H](CO)[C@H](O)[C@H]2O)c(=O)n1 :: 84
Nc1ncnc2c1ncn2[C@@H]1O[C@H](CO)[C@@H](O)[C@@H]1O :: 31
Nc1ncnc2c1ncn2[C@@H]1O[C@H](CO)[C@H](O)[C@H]1O :: 17
Nc1ccn([C@@H]2O[C@H](CO)[C@@H](O)[C@@H]2O)c(=O)n1 :: 0.05
Nc1nc(O)c2ncn([C@@H]3O[C@H](CO)[C@H](O)[C@H]3O)c2n1 :: 71

* * *

System: Vero
assay.explanation: Antiviral activity was measured against Reo virus-1 in african green monkey kidney (Vero B) cells.
Format: functional
experimental.conditions: Chlorocebus sabaeus
property.label: MCC

Cc1cn([C@@H]2O[C@H](CO)[C@@H](O)[C@H]2O)c(=O)[nH]c1=O :: > 400 µg/mL
O=c1ccn(C2O[C@H](CO)[C@H](O)[C@H]2O)c(=O)[nH]1 (stereo not given in full) :: > 400 µg/mL
Nc1ncnc2c1ncn2C1O[C@H](CO)[C@H](O)[C@H]1O (stereo not given in full) :: > 400 µg/mL
Nc1ncnc2c1ccn2[C@@H]1O[C@H](CO)[C@@H](O)[C@H]1O :: 0.1 µg/mL
Nc1nc(O)c2c(n1)[nH]c[n+]2C1O[C@H](CO)[C@H](O)[C@H]1O (stereo not given in full) :: > 200 µg/mL
Nc1ccn([C@@H]2O[C@H](CO)[C@H](O)[C@H]2O)c(=O)n1 :: > 100 µg/mL
Nc1ncnc2c1ncn2[C@@H]1O[C@H](CO)[C@@H](O)[C@@H]1O :: 150 µg/mL
Nc1ncnc2c1ncn2C[C@H](O)CO [(S)-DHPA] :: 100 µg/mL
Nc1nc(O)c2ncn([C@@H]3O[C@H](CO)[C@H](O)[C@H]3O)c2n1 :: > 400 µg/mL
NC(=O)c1ncn([C@H]2O[C@H](CO)[C@H](O)[C@H]2O)c1N :: > 400 µg/mL
